Attribution: PubChem BioAssay (NCI)

# Test system: SK-MEL-2 melanoma
# PROTOCOL_DETAILS: NCI tumour cell line growth inhibition, 48 h; in the data active means GI50 below about 0.43 µM; inactive means the rest
Reply using exactly one outcome from Y = active, N = inactive

Below, 5 compounds whose answers are already recorded.
• C#Cc1cccc(Nc2nc3cc([N+](=O)[O-])ccc3nc2Nc2ccc(O)cc2)c1 = N
• COc1ccc(Cn2c(Br)c3c(c2Br)-c2nc(N)sc2CC3)cc1 = N
• NC(=S)N/N=C\c1nccc2c(C(F)(F)F)cccc12 = N
• CCCCCCOc1ccc(/C=N/Nc2cc(C)nc3ccc(Cl)cc23)cc1 = N
• COc1ccc(C(c2cc(OC)c(OC)c(OC)c2)n2cncn2)cc1O (centres undefined) = Y

Req: Name the outcome recorded for COC(=O)/C=C/c1cc(OC(C)=O)c2c(c1)[C@@H](C(=O)OC)[C@H](c1ccc(OC(C)=O)c(OC(C)=O)c1)O2 in the assay.
Resp: Y

Req: Kindly provide the recorded test outcome for the following compound: C=C1C[C@H](O)[C@H](Br)C(C)(C)[C@@]12CCC(C)=C(Cl)C2
Resp: Y

Req: State the result this test recorded for C/C=C/[C@@H]1O[C@@H]2COC(=O)C2=C[C@@H]1O .
Resp: N

Req: # lookup: test call for COc1cc(/C=C2\CN(S(=O)(=O)c3ccc(C)cc3)C/C(=C\c3cc(CN4CCCC4)c(O)c(OC)c3)C2=O)cc(CN2CCCC2)c1O
Resp: N
